test.system: voltage-dependent anion channel 1 (VDAC1) (Homo sapiens, UniProt P21796)
Sequence (P21796 2-283): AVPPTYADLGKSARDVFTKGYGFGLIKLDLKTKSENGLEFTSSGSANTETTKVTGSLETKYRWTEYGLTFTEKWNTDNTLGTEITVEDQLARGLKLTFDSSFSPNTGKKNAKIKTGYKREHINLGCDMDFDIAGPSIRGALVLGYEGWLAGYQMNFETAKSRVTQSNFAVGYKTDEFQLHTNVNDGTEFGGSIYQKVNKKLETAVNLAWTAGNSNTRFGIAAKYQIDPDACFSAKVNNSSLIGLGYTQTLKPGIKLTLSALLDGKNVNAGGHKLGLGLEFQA
procedure.text: microscale thermophoresis (MST); supported by dose-dependent DARTS in HepG2 mitochondrial lysate (EC50 […]) and loss of protection in D9A/E203A mutants
assay.readout: pKd
Kindly note that pKd refers to -log10 of the concentration in mol/L and answer with the value alone.

Q: Look up pKd with voltage-dependent anion channel 1 (VDAC1) (Homo sapiens, UniProt P21796) for this compound: CN(C)C(=N)N=C(N)N [Metformin]
Result: 3.69
